# Measured Target: androgen receptor (Homo sapiens, UniProt P10275)
# Sequence (P10275 whole entry Q868H, form open): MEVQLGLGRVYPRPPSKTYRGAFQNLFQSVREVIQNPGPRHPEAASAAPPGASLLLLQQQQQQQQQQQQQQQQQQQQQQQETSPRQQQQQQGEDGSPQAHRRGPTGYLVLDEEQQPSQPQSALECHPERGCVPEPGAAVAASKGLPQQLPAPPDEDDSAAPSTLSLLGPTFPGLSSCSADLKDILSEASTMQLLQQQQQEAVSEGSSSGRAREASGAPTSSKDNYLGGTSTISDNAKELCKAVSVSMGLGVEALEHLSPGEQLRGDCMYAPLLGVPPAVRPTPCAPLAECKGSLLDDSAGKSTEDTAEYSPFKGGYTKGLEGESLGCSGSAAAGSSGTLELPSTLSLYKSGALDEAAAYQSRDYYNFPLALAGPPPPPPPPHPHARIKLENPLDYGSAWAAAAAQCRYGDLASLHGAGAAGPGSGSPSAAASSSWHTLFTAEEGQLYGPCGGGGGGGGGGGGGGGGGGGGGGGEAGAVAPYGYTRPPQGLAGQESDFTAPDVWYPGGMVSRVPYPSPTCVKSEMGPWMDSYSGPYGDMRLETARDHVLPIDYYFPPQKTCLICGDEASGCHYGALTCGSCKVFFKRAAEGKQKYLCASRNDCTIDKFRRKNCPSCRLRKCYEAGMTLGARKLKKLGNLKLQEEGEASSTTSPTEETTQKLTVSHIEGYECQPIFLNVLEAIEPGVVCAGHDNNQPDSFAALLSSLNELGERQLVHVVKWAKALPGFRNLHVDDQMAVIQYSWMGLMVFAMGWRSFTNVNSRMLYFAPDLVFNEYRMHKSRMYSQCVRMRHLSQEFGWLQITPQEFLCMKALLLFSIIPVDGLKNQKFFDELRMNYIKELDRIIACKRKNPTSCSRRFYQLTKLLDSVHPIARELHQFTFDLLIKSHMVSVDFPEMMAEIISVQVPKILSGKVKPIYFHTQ
# Procedure Text: AR Antagonist Cell Assay (MMTV-luciferase reporter, DHT-stimulated)
# Run Conditions: MDA-MB453-MMTV clone 54-19 cells; antagonism of 100 pM DHT, 17 hr, luciferase readout
Measured Property: IC50 (µM)

Check out these entries, answers already filled in.
>  <Molecule>
O=c1cc(C(F)(F)F)c2cc(Cc3ccc(S(=O)(=O)NCc4ccccc4OC(F)F)cc3)ccc2o1 [Example 199]

>  <IC50 / µM>
4.73

$$$$
>  <Molecule>
O=c1cc(C(F)(F)F)c2cc(Cc3ccc(S(=O)(=O)Nc4cccc(-c5cnco5)c4)cc3)ccc2o1 [Example 144]

>  <IC50 / µM>
2.17

$$$$
>  <Molecule>
O=c1cc(C(F)(F)F)c2cc(Cc3ccc(S(=O)(=O)NC4CCCC4)cc3)ccc2o1 [Example 158]

>  <IC50 / µM>
6.5

$$$$
>  <Molecule>
CC(CNS(=O)(=O)c1ccc(Cc2ccc3[nH]c(=O)cc(C(F)(F)F)c3c2)cc1)c1ccccc1 (stereo not drawn) [Example 65]

>  <IC50 / µM>
5.38

$$$$
>  <Molecule>
O=c1cc(C(F)(F)F)c2cc(Cc3ccc(S(=O)(=O)Nc4cccc5cccnc45)cc3)ccc2o1 [Example 137]

>  <IC50 / µM>
7.08

$$$$
>  <Molecule>
CCCN(CC1CC1)S(=O)(=O)c1ccc(Cc2ccc3[nH]c(=O)cc(C(F)(F)F)c3c2)cc1 [Example 9A]

>  <IC50 / µM>
6.29

$$$$

(A) O=c1cc(C(F)(F)F)c2cc(Cc3ccc(S(=O)(=O)NCc4ccc(F)cc4Cl)cc3)ccc2o1 [Example 198]
(B) O=c1cc(C(F)(F)F)c2cc(Cc3ccc(S(=O)(=O)Nc4ccc5c(c4)OCO5)cc3)ccc2o1 [Example 131]
(C) O=c1cc(C(F)(F)F)c2cc(Cc3ccc(S(=O)(=O)Nc4cccc(OC(F)(F)F)c4)cc3)ccc2o1 [Example 147]
INPUT: Hi! Can you put these in order of IC50, lowest number first? Give the labels in the order specified.
OUTPUT: B, A, C

(I) COc1ccc(OC)c(NS(=O)(=O)c2ccc(Cc3ccc4oc(=O)cc(C(F)(F)F)c4c3)cc2)c1 [Example 140]
(II) CCN(Cc1ccncc1)S(=O)(=O)c1ccc(Cc2ccc3oc(=O)cc(C(F)(F)F)c3c2)cc1 [Example 98]
INPUT: For this pair, I and II , which shows a numerically higher IC50? Identify your selection by its label.
OUTPUT: I

Provenance of the data: patent US7098340B2
